- Test system: Jurkat
- experimental details: Cytotoxicity against human Jurkat cells after 24 hrs by MTT assay
- Format: functional, cell-based
property name: pIC50
Lab note: report pIC50 as minus log10 of the concentration in molar units, number only.

Field: example entries. Status: answers known.
COc1cc(C)cc2c1C(=O)c1c(O)cc(O)c(Cl)c1C2=O	4.88
COc1cc(CO)cc2c1C(=O)c1c(O)cc(O)c(Cl)c1C2=O	4.55
CO[C@H]1CCC[C@H](C)OC(=O)Cc2cc(O)cc(O)c2C(=O)C1	5.64
C[C@H]1CCC/C=C/C(=O)c2c(O)cc(O)cc2CC(=O)O1 [DEHYDROCURVULARIN]	5.26

// query Report its pIC50 with Jurkat as the test system: C/C=C/C=C/C(=O)C1=C(O)[C@@]2(C)[C@H]3C(C(=O)/C=C/C=C/C)=C(O)[C@@]4(C)[C@@H]1[C@]1(C)O[C@@]4(O)[C@@]3(C)O[C@@]12O
// result 4.55
